Where do these numbers come from? They come from PubChem BioAssay AID330.

Test system: P388 leukemia ip, CD2F1 mice, survival T/C
test details: NCI In Vivo Anticancer Drug Screen. Data for tumor model P388 Leukemia (intraperitoneal) in CD2F1 (CDF1) mice
condition notes: endpoint: median survival time; dose: 100.0 mg/kg/injection; schedule: Q01DX005 (ip); vehicle: saline with Tween-80; higher = longer survival
Inconclusive results and toxic doses are left out. Peptide text beside a SMILES is read from it. * marks the point of attachment. Cbz = O=C(OCc1ccccc1)*; OtBu = CC(C)(C)O*
In this section, each of the molecules is paired with its reported T/C.

| molecule | T/C |
| --- | --- |
| CC(C)(C)OC(=O)CCC(NC(=O)C(CCC(=O)OC(C)(C)C)NC(=O)C(CCC(=O)OC(C)(C)C)NC(=O)OCc1ccccc1)C(=O)O (configuration not stated) (Cbz-Glu(OtBu)-Glu(OtBu)-Glu(OtBu)-OH; configuration not given here) | 100 % of control |
| COC(=O)/C=C\C1(CCC(=O)OC)N=C(c2ccccc2)OC1=O (configuration not stated) | 92 % of control |
| FC(F)(F)COP(OCC(F)(F)F)c1ccccc1 | 111 % of control |
| CC1(C)OC2(C)CCC1C1C2N1C(=O)Nc1cccc2ccccc12 (configuration not stated) | 97 % of control |
| O=C1Nc2cc3c(cc2C(=O)N2C/C(=N/O)CC12)OCO3 (configuration not stated) | 99 % of control |
| O=C(NN(CCN(NC(=O)c1ccccc1)C(=O)c1ccccc1)C(=O)c1ccccc1)c1ccccc1 | 92 % of control |
| Cc1c(C)c(C)c(S(=O)(=O)OCCCl)c(C)c1C | 92 % of control |
| CSc1nc2nc[nH]c2c(=O)[nH]1 | 101 % of control |
| CCCCCCCSc1ncnc2c1ncn2C(=O)Sc1ccccc1 | 99 % of control |
| CN1OC(=O)OC(C)(c2ccccc2)C1=O (configuration not stated) | 97 % of control |
| CCOC(=O)COc1cc2c(cc1Cc1ccc(OC)cc1)OCO2 | 92 % of control |
| COC(=O)C1=CO[C@@H](C)[C@@H]2CN3CCc4c([nH]c5cc(OC)ccc45)[C@@H]3C[C@H]12 | 92 % of control |
| CCOC(=O)c1cc(NO)c(=O)c2ccc(OC)cc2c1 | 89 % of control |
| CC[C@H]1C[C@H](Cc2ccccc2)CC[C@H]1N1CCCC1 | 104 % of control |
| C=C1C(=C)C2OC1c1cc3c(cc12)C(=O)c1ccccc1C3=O | 109 % of control |
| COc1cccc(N=Nc2c(-c3ccccc3)nn(C(=S)S)c2C)c1 | 93 % of control |
| COC(=O)CCCC1=NCCS1 | 103 % of control |
| O=C1CSc2nc3c(Cl)cc(Cl)cc3c(=O)n21 | 100 % of control |
| CCCCCCCNc1ncnc2[nH]ncc12 | 107 % of control |
| C/C(=N\NC(=S)Nc1ccc(S(N)(=O)=O)cc1)c1ccccn1 | 96 % of control |
| COC(=O)CC1(O)C=CC(=O)c2ccccc21 (configuration not stated) | 112 % of control |
| O=C1c2sccc2C2C1N2C(=O)C(F)(F)F (configuration not stated) | 98 % of control |

---

Test system: P388 leukemia ip, CD2F1 mice, survival T/C
test details: NCI In Vivo Anticancer Drug Screen. Data for tumor model P388 Leukemia (intraperitoneal) in CD2F1 (CDF1) mice
condition notes: endpoint: median survival time; dose: 50.0 mg/kg/injection; schedule: Q01DX009 (ip); vehicle: saline; higher = longer survival
Toxic doses and inconclusive results are not listed.
In this section, each of the molecules is paired with its reported T/C.
parameter measured: T/C

| molecule | parameter measured | measurement |
| --- | --- | --- |
| CC(C)CC(N)C(=O)NC(Cc1c[nH]c2ccccc12)C(N)=O (stereo not given) | T/C | 93 % of control |
| Nc1ccc(N=O)c(N)n1 | T/C | 106 % of control |
| CC1(C)OCC(C2NC2C2COC(C)(C)O2)O1 (stereo not given) | T/C | 108 % of control |
| CCOC(=O)CNC(=O)Nc1c(C)n(C)n(-c2ccccc2)c1=O | T/C | 103 % of control |
| CO[Si](CCCN)(OC)OC | T/C | 119 % of control |
| CC(=O)Oc1ccc2c(c1)c1c(OC(C)=O)c(N(C)C(C)=O)cc(OC(C)=O)c1n2C | T/C | 100 % of control |
| O=C1CCC(c2ccccc2)=NN1 | T/C | 100 % of control |
| C#CC(C)OC (stereo not given) | T/C | 96 % of control |
| CCCCNP(=O)(N1CC1C)N1CC1C (stereo not given) | T/C | 86 % of control |
| O=C(CC(=O)NO)NO | T/C | 115 % of control |

---

In this section, each of the molecules is paired with its reported T/C.
System: P388 leukemia ip, CD2F1 mice, survival T/C
test details: NCI In Vivo Anticancer Drug Screen. Data for tumor model P388 Leukemia (intraperitoneal) in CD2F1 (CDF1) mice
condition notes: endpoint: median survival time; dose: 50.0 mg/kg/injection; schedule: Q01DX005 (ip); vehicle: Klucel (hydroxypropylcellulose) (HPC); higher = longer survival
Inconclusive results and toxic doses are left out.

| molecule | T/C |
| --- | --- |
| CCCCOC(=O)/C=C/C(=O)N1CCN(C(=O)/C=C/C(=O)OCCCC)C(C)C1 (stereo not given) | 100 % of control |
| CN(C)C(=S)SSC(C)(C)C | 100 % of control |
| CC(=NC1CCCCC1)Nc1ccc(NC(=O)c2ccc(C(=O)Nc3ccc(NC(C)=NC4CCCCC4)cc3)cc2)cc1 | 104 % of control |
| CC1C(=O)CCC2C1(C)CCC1C2(C)CCC2(C)C3CC(C)(C(=O)O)CCC3(C)CCC12C (stereo not given) | 88 % of control |
| COc1ccc(OC)c2cc3c(cc12)C(=O)c1ccccc1C3=O | 87 % of control |

---

Test system: P388 leukemia ip, CD2F1 mice, survival T/C
test details: NCI In Vivo Anticancer Drug Screen. Data for tumor model P388 Leukemia (intraperitoneal) in CD2F1 (CDF1) mice
condition notes: endpoint: median survival time; dose: 200.0 mg/kg/injection; schedule: Q01DX005 (ip); vehicle: saline; higher = longer survival
Toxic doses and inconclusive results are not listed.

| compound | target or system | T/C |
| --- | --- | --- |
| CN1CCCC1=NCCN=C1CCCN1C | P388 leukemia ip, CD2F1 mice, survival T/C | 98 % of control |
| O=C(CCSCCC(=O)N/N=C/C(O)C(O)C(O)C(O)CO)N/N=C/C(O)C(O)C(O)C(O)CO (stereo not given) | P388 leukemia ip, CD2F1 mice, survival T/C | 99 % of control |
| CCC(=O)OCCN(CCOC(=O)CC)C(=O)C(C)OC(=O)CC (stereo not given) | P388 leukemia ip, CD2F1 mice, survival T/C | 110 % of control |
| NCC(N)CCC(=O)O (stereo not given) | P388 leukemia ip, CD2F1 mice, survival T/C | 105 % of control |
| O=CC(O)C(O)C(O)C(O)C(O)C#CC#CC(O)C(O)C(O)C(O)C(O)C=O (stereo not given) | P388 leukemia ip, CD2F1 mice, survival T/C | 92 % of control |
| CN(C)C(P1(=O)OC(C)(C)C(C)(C)O1)P1(=O)OC(C)(C)C(C)(C)O1 | P388 leukemia ip, CD2F1 mice, survival T/C | 98 % of control |
| C1CCC2C(C1)CCC1COCN12 (stereo not given) | P388 leukemia ip, CD2F1 mice, survival T/C | 101 % of control |
| C=C(C)C(=O)N/C(N)=N\C(N)=O | P388 leukemia ip, CD2F1 mice, survival T/C | 112 % of control |
| O=C(O)C(O)C(O)C(OC1OC(CO)C(O)C(O)C1O)C(O)CO (stereo not given) | P388 leukemia ip, CD2F1 mice, survival T/C | 102 % of control |
| O=C(NC(CO)C(=O)O)c1ccccc1 (stereo not given) | P388 leukemia ip, CD2F1 mice, survival T/C | 100 % of control |

---

System: P388 leukemia ip, CD2F1 mice, survival T/C
test details: NCI In Vivo Anticancer Drug Screen. Data for tumor model P388 Leukemia (intraperitoneal) in CD2F1 (CDF1) mice
condition notes: endpoint: median survival time; dose: 120.0 mg/kg/injection; schedule: Q01DX005 (ip); vehicle: Klucel (hydroxypropylcellulose) (HPC); higher = longer survival
Procedure: The antitumor activity of compounds was measured in mice bearing transplantable tumors. Survival or tumor size were measured and the results are expressed as the measurement made in the treated group (T) divided by the measurement made in the vehicle treated control group (C). The tumor model used in this assay is P388 Leukemia (intraperitoneal) in CD2F1 (CDF1) mice
Toxic doses and inconclusive results are not listed.
In this section, each of the molecules is paired with its reported T/C.
parameter measured: T/C

| molecule | measurement |
| --- | --- |
| OCCCC(=S)NCCNC(=S)CCCO | 92 % of control |
| CCc1ncc(C(C)(O)c2ccc(C)cc2)n1Cc1ccccc1 (stereo not drawn) | 86 % of control |
| CC1=C2C3OC(=O)C(C)C3CCC2(C)C=C(Cl)C1=O (stereo not drawn) | 98 % of control |
